Target protein (sequence): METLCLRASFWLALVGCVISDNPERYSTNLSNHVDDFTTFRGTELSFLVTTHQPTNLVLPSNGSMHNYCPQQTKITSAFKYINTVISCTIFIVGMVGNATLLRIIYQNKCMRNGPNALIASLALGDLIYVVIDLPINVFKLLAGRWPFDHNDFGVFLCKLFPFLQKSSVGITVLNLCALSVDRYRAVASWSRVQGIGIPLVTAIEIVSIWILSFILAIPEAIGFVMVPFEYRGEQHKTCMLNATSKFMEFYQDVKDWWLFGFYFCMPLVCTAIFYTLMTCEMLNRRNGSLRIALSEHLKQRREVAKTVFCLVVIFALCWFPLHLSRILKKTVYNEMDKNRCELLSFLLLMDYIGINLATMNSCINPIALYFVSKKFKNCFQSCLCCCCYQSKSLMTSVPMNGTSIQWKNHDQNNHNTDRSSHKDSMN
Below are IC50 measurements against the protein given by its sequence drawn from the literature.
QUANTITY NAME: IC50 (nM)

# annotated cases, reported IC50 shown
• Cc1noc(NS(=O)(=O)c2ccsc2C(=O)O)c1C = 6060
• Cc1noc(NS(=O)(=O)c2ccsc2C(Cc2ccc3c(c2)OCO3)N(C)C)c1Cl (stereo not given) = 21000
• Cc1[nH]c([C@@H](Cc2cn(C)c3ccccc23)NC(=O)[C@H](CC(C)C)NC(=O)NC2CCCCC2)nc1C(=O)O = 11

P. COc1ccc([C@H]2[C@H](C(=O)O)[C@@H](c3ccc4c(c3)OCO4)CN2CC(=O)NC(c2ccccc2)c2cc(C)ccc2C)cc1 (stereo not given in full)
Q. Cc1noc(NS(=O)(=O)c2ccsc2COc2ccc3c(c2)OCO3)c1Br
Task item: Hey, between P and Q which has a smaller measured IC50? Mark your answer with the label of the selected entry.
Reply: P
(P: 122 nM, Q: 299 nM)
